These entries and their values trace back to PubChem BioAssay (NCI).

TGI values, listed per item
tested on: TK-10 renal; assay: NCI tumour cell line growth inhibition, 48 h
Property name: TGI

| Compound | Experimental system | Experimental result |
| --- | --- | --- |
| CC(=O)C(C(C)=O)=C1CCCC(O)O1 (stereo not drawn) | TK-10 renal | > 100 µM |
| COc1cc(OC)c2c(O)cc(CC(C)O)cc2c1 (stereo not drawn) | TK-10 renal | > 100 µM |
| COc1ccc(N=C2CSc3nnc(-c4cc(F)c(Cl)cc4Cl)n3N2)cc1 | TK-10 renal | 4.06 µM |

###

tested on: NCI-H226 lung; assay: NCI tumour cell line growth inhibition, 48 h; in the data active = GI50 below about 0.43 µM; inactive = the rest
Classes used: Y for active, N for inactive

| Compound | Assigned category |
| --- | --- |
| CNC(=O)c1cc(OC2CCC(NC(=O)Nc3ccc(Cl)c(C(F)(F)F)c3)CC2)ccn1 (stereo unspecified) | N |
| O=C(NNc1nc(Cl)nc(N2CCN(C(c3ccccc3)c3ccccc3)CC2)n1)c1ccccc1 | N |
| O=C(Oc1ccc(Cl)cc1Cl)c1ccccc1Nc1ccnc(C(F)(F)F)c1 | N |
| COc1ccc2nc(N/N=C(\C)c3ccccn3)cc(C)c2c1 | Y |
| C=C1C(=O)O[C@H]2[C@H]1CC/C(COC(=O)c1cc3cc(F)ccc3[nH]1)=C\CC[C@@]1(C)O[C@@H]21 | N |
| CS(=O)(=O)CCNCc1nc(-c2ccc3ncnc(Nc4ccc(F)c(Cl)c4)c3c2)cs1 | N |
| Cc1ccc2[nH]cc(-c3nc(-c4c[nH]c5ncccc45)cs3)c2c1 | N |
| COc1cc(/C(C#N)=C/c2ccc3c(c2OC)OCO3)cc2c1OCO2 | N |
| CC(=O)O[C@H]1CC[C@@]2(C)C(=CC[C@@H]3[C@@H]2CC[C@]2(C)C(c4cccnc4)=CC[C@@H]32)C1 | N |
| O=c1oc2cc(OS(=O)(=O)c3ccc(F)cc3)ccc2c2c1CCCCC2 | N |
| COc1nc(N(C)O)nc(N(C)O)n1 | N |

###

TGI values, listed per item
tested on: HS 578T breast; test: NCI tumour cell line growth inhibition, 48 h

| Molecule | Qualifier operator | TGI [µM] |
| --- | --- | --- |
| COC(=O)/C=C\Sc1ccn(/C=C\C(=O)OC)c(=S)n1 | = | 78.9 |
| COc1cccc(C2CC(C)(N3CCCC3)Oc3cc4c(cc32)OCO4)c1O (stereo not given) | = | 57.7 |
| CC(=O)Nc1ccc2c(c1)c(C1=C(c3cn(C)c4ccccc34)C(=O)NC1=O)cn2C | > | 6.79 |
| CSc1c(C(=O)Nc2ccccc2)c(N)nn1-c1ccccc1 | > | 100 |
| C=C1C(=O)O[C@H]2[C@H]1CC/C(COC(=O)c1cc3cc(F)ccc3[nH]1)=C\CC[C@@]1(C)O[C@@H]21 | = | 18.8 |

###

test system: A549 NSCLC; assay: NCI tumour cell line growth inhibition, 48 h
TGI values, listed per item

| Compound | Experimental system | TGI |
| --- | --- | --- |
| COC(=O)c1cc(C)ccc1CC(Cc1cccc(C)c1)C(=O)OC (stereo not drawn) | A549 NSCLC | > 100 µM |
| O=C(CSc1nc2ccccc2[nH]1)Nc1ccc(-c2nc3ccccc3s2)c(Cl)c1 | A549 NSCLC | > 100 µM |
| COc1cc2c3cc1Oc1c(O)c(OC)cc4c1[C@H](Cc1ccc(cc1)Oc1cc(ccc1O)C[C@H]3N(C)CC2)N(C)CC4 | A549 NSCLC | 39.6 µM |
| CCCCOC(=O)C(=O)C(CCC(=O)c1ccc(C)cc1)C(=O)C=C(C)C (stereo not drawn) | A549 NSCLC | > 100 µM |
| CCOC(=O)[C@@]1(C)C=C2O[C@@H]3OC4(CCCCC4)O[C@@H]3C2=C2C(O)=CC=C(O)[C@]21C(=O)OC | A549 NSCLC | > 68 µM |
| O=C(c1ccccc1)C(C(=O)c1ccccc1)C1(O)C(=O)c2ccccc2C1=O | A549 NSCLC | > 100 µM |
| CCOc1cc2ncc(C#N)c(Nc3ccc(OCc4cccc(F)c4)c(Cl)c3)c2cc1NC(=O)CC1CCSS1 (stereo not drawn) | A549 NSCLC | 1.16 µM |
| Nc1ccn(CCOC(=O)c2ccccc2)c(=O)n1 | A549 NSCLC | > 100 µM |

###

tested on: M14 melanoma; test: NCI tumour cell line growth inhibition, 48 h
TGI values, listed per item

| Compound | TGI |
| --- | --- |
| COc1cc2c(cc1OC)C(=O)/C(=C/c1cccc(OCC(=O)c3ccccc3)c1)C2 | > 100 µM |
| O=P(O)(CCP(=O)(O)c1ccccc1)c1ccccc1 | > 100 µM |
| Cc1ccc(-[n+]2c3cc(N)c(C)cc3nc3cc(C)c(Nc4ccccc4)cc32)cc1 | 0.428 µM |
| O=C(NCCN(CCNC(=O)c1cccc(=O)n1O)CCN(CCNC(=O)c1cccc(=O)n1O)CCNC(=O)c1cccc(=O)n1O)c1cccc(=O)n1O | > 100 µM |
| Cc1nc2c(nc1C)C(=O)c1cc(O)ccc1C2=O | > 100 µM |
| O=C(Nc1ccccc1)O/N=C(/CBr)c1ccccc1 | 28.4 µM |
| COc1cc(CCc2ccc(OCCN(C)C)cc2)cc(OC)c1OC | > 100 µM |
| COc1cccc(C2CC(C)(N3CCCC3)Oc3cc4c(cc32)OCO4)c1O (stereo not given) | > 83.8 µM |
| O=c1oc2cc(OS(=O)(=O)c3ccc(F)cc3)ccc2c2c1CCCCC2 | > 100 µM |
| COc1ccc(C2=C(OC(=O)N(C)C)c3cccn3-c3cc(C(F)(F)F)ccc3S2)cc1 | > 10 µM |

###

system: HOP-62 NSCLC; assay: NCI tumour cell line growth inhibition, 48 h

| Molecule | Experimental system | Qualifier operator | TGI (µM) |
| --- | --- | --- | --- |
| COc1ccc(N(C(=O)Nc2ccc(Cl)c(Cl)c2)c2ccccc2)cc1 | HOP-62 NSCLC | > | 10 |
| COc1cccc(C2CC(C)(N3CCCC3)Oc3cc4c(cc32)OCO4)c1O (stereo not given) | HOP-62 NSCLC | = | 90.1 |
| COC(=O)Cc1ccc2c(c1)Sc1ccc(CC(=O)OC)cc1N2C | HOP-62 NSCLC | > | 100 |
| Cc1ccc2c(=O)cc(-c3csc4ccccc34)[nH]c2n1 | HOP-62 NSCLC | = | 21.8 |
| COc1cc2c3cc1Oc1c(O)c(OC)cc4c1[C@H](Cc1ccc(cc1)Oc1cc(ccc1O)C[C@H]3N(C)CC2)N(C)CC4 | HOP-62 NSCLC | = | 43.8 |
| CCOC(=O)[C@@]1(C)C=C2O[C@@H]3OC4(CCCCC4)O[C@@H]3C2=C2C(O)=CC=C(O)[C@]21C(=O)OC | HOP-62 NSCLC | > | 68 |
| Cc1ncc(CN=Cc2ccc(Cl)cc2)c(N)n1 | HOP-62 NSCLC | > | 100 |
| Cn1ccnc1S/C(=C\C=C(C#N)C#N)c1ccc(Cl)cc1 | HOP-62 NSCLC | = | 11.1 |
| CCC(C)[C@H](NC(=O)N[C@H](C)c1ccccc1)C(=O)OC (stereo not given in full) | HOP-62 NSCLC | > | 100 |
| ClCc1cccc(Cn2cnc3c(Cl)ncnc32)c1 | HOP-62 NSCLC | = | 5.11 |

###

test system: OVCAR-8 ovarian; experiment: NCI tumour cell line growth inhibition, 48 h; in the data active = GI50 below about 0.43 µM; inactive = the rest
Classes used: yes (1) = active, no (0) = inactive

| Compound | Assigned category |
| --- | --- |
| COc1cc(-c2nn(-c3ccc(NC(=O)c4ccc(Cl)c(Cl)c4)cc3)cc2-c2ccncc2)ccc1Cl | no (0) |
| COc1nc(N(C)O)nc(N(C)O)n1 | no (0) |
| COc1ccc(N=C2CSc3nnc(-c4cc(F)c(Cl)cc4Cl)n3N2)cc1 | no (0) |
| Cc1cc(-c2ncc(CC(=O)Nc3ccc(-c4cnccn4)cn3)cc2C)ccn1 | no (0) |
| CNC(P(=O)([O-])[O-])P(=O)([O-])[O-].N.N.[Pt+2] | no (0) |
| COc1ccc2nc(N/N=C(\C)c3ccccn3)cc(C)c2c1 | yes (1) |
| COc1cc(O)c([C@@H]2C[C@H](CCc3ccc(O)cc3)O[C@H](c3ccc(O)cc3)C2)c(O)c1C(=O)/C=C/c1ccc(O)cc1 | no (0) |
| ClCc1cccc(Cn2cnc3c(Cl)ncnc32)c1 | no (0) |
| CC(C)C[C@H](NC(=O)[C@H](Cc1cccc2ccccc12)NC(=O)N1CCOCC1)B(O)O | yes (1) |
| CN(C)c1cccc2c(S(=O)(=O)N[C@H]3CC[C@H]4[C@@H]5CCc6cc(O)ccc6[C@H]5CC[C@]34C)cccc12 | no (0) |
| O=C1NCc2ccc3c(-c4cccc(Cl)c4)c[nH]c3c21 | no (0) |
| CNC(=O)c1cc(OC2CCC(NC(=O)Nc3ccc(Cl)c(C(F)(F)F)c3)CC2)ccn1 (stereo not drawn) | no (0) |
| COc1ccc(-c2nn3ncccc3c2-c2ccnc(Nc3ccc(Cl)c(C(F)(F)F)c3)n2)cc1 | no (0) |
